Values compiled from BigSolDB 2.1.

SETTINGS: in ethanol, 288.15 K
MEASUREMENT_NAME: solubility (mole fraction)
API doc: respond with a numeric literal and nothing else, no unit.

Q: Note solubility (mole fraction) for the molecule shown: CCCCOc1ccc(C(=O)CCN2CCCCC2)cc1.Cl
A: 0.0786

====

SETTINGS: in water, 283.15 K
MEASUREMENT_NAME: solubility (mole fraction)
Lab note: jot the number down without any unit.

Q: Return value of solubility (mole fraction) for input CCCCOc1ccc(C(=O)CCN2CCCCC2)cc1.Cl , no commentary.
A: 0.0339

====

SETTINGS: in ethanol, 313.15 K
MEASUREMENT_NAME: solubility (mole fraction)
// no unit, no text: just the number

Q: Tell me solubility (mole fraction) reported for CCCCOc1ccc(C(=O)CCN2CCCCC2)cc1.Cl
A: 0.14

====

SETTINGS: in methanol, 323.15 K
MEASUREMENT_NAME: solubility (mole fraction)
Lab note: record the figure alone, no unit after it.

Q: Return solubility (mole fraction) (reported value) for this molecule: CCCCOc1ccc(C(=O)CCN2CCCCC2)cc1.Cl
A: 0.238

====

SETTINGS: in ethanol, 318.15 K
MEASUREMENT_NAME: solubility (mole fraction)

Q: Retrieve solubility (mole fraction) measured for CCCCOc1ccc(C(=O)CCN2CCCCC2)cc1.Cl and print it.
A: 0.157

====

SETTINGS: in acetone, 303.15 K
MEASUREMENT_NAME: solubility (mole fraction)
Respond numerically, and do not add a unit to the figure.

Q: Consider the compound CCCCOc1ccc(C(=O)CCN2CCCCC2)cc1.Cl . State its measured solubility (mole fraction).
A: 0.0321

====

SETTINGS: in water, 308.15 K
MEASUREMENT_NAME: solubility (mole fraction)
Form field (numeric): enter value without unit.

Q: Determine from records and report solubility (mole fraction) for CCCCOc1ccc(C(=O)CCN2CCCCC2)cc1.Cl
A: 0.0674

====

SETTINGS: in ethanol, 278.15 K
MEASUREMENT_NAME: solubility (mole fraction)
Give the value as a plain number.

Q: Please look at this compound and report its solubility (mole fraction): CCCCOc1ccc(C(=O)CCN2CCCCC2)cc1.Cl
A: 0.062

====

SETTINGS: in acetone, 278.15 K
MEASUREMENT_NAME: solubility (mole fraction)
Would you mind answering with just the numeric figure?

Q: Give the reported solubility (mole fraction) for this compound. CCCCOc1ccc(C(=O)CCN2CCCCC2)cc1.Cl
A: 0.0121

====

SETTINGS: in ethanol, 323.15 K
MEASUREMENT_NAME: solubility (mole fraction)

Q: Quote solubility (mole fraction) reported for CCCCOc1ccc(C(=O)CCN2CCCCC2)cc1.Cl please.
A: 0.175

====

SETTINGS: in water, 313.15 K
MEASUREMENT_NAME: solubility (mole fraction)
Give the value as a plain number.

Q: Retrieve solubility (mole fraction) measured for CCCCOc1ccc(C(=O)CCN2CCCCC2)cc1.Cl and print it.
A: 0.0774

====

SETTINGS: in methanol, 298.15 K
MEASUREMENT_NAME: solubility (mole fraction)

Q: Quick one: give measured solubility (mole fraction) for CCCCOc1ccc(C(=O)CCN2CCCCC2)cc1.Cl
A: 0.131

====

SETTINGS: in acetone, 318.15 K
MEASUREMENT_NAME: solubility (mole fraction)

Q: Query solubility (mole fraction) for CCCCOc1ccc(C(=O)CCN2CCCCC2)cc1.Cl
A: 0.0574
